Please provide measured pIC50 for the entries that follow.
target: recombinant eIF4E (Homo sapiens (Human), UniProt P06730); test: Fluorescence polarization competition assay for eIF4E binding potency; conditions: fluorescence polarization competition, 75 nM recombinant eIF4E, 20 nM EDA-m7GDP-ATTO-550; IC50 class; read-out: elF4E FP
Sequence (P06730 whole entry): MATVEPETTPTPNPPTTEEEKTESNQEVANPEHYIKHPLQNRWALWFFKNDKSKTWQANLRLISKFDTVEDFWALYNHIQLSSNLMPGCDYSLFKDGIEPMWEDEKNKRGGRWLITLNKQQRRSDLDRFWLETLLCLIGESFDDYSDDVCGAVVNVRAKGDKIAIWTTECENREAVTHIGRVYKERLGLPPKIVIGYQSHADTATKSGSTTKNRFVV
pIC50: −log10 of the molar value.

For reference, reported pIC50 for Cc1nc2cc(C(F)(F)F)cc(C#N)c2c(=O)n1CCOc1ccc(Cl)cc1-c1cccc(C(=O)O)c1 [compound 51] stands at > 7.30

# pIC50 of Cc1cc(-c2cc(Cl)ccc2OCCn2c(C)nc3cc(OC(F)F)cc(C#N)c3c2=O)c2scc(C(=O)NS(C)(=O)=O)c2n1 [compound 580] = > 7.30

response.value for Cc1nc2cc(C(F)(F)F)cc(C#N)c2c(=O)n1CCOc1ccc(Cl)cc1N1CCC(CC(=O)O)CC1 [compound 328] (field: pIC50) = < 6.00

Measured pIC50 of Cc1nc2cc(CN(C)Cc3cn(C)nn3)c(OC(F)F)c(C#N)c2c(=O)n1CCOc1ccc(Cl)cc1-c1ccnc2c(C(=O)O)csc12 [compound 651] : > 7.30

For this compound ( N#Cc1cc2c(=O)n(CCOc3ccc(Cl)cc3-c3cc(C(=O)O)c(F)cc3F)cnc2cn1 [compound 86] ), measured pIC50 is < 6.00

Kindly note the recorded pIC50 for Cc1nc2cnc(N(C)C3CCN(C4CC(F)(F)C4)CC3)c(C#N)c2c(=O)n1CC#Cc1ccc(Cl)cc1-c1ccnc2c(C(=O)NS(C)(=O)=O)csc12 [compound 1108] , which is > 7.30

Recorded pIC50 (compound Cc1nc2cnc(N(C)C3CCN(CC4(F)COC4)CC3)c(C#N)c2c(=O)n1CC#Cc1ccc(Cl)cc1-c1ccnc2c(C(=O)O)csc12 [compound 1185] ): > 7.30

// Cc1nc2cc(C(F)(F)F)c(CN3CCC(F)(F)CC3)c(C#N)c2c(=O)n1CCOc1ccc(Cl)cc1-c1ccnc2c(C(=O)O)csc12 [compound 522] : pIC50 value = > 7.30

* * *

biological target: recombinant eIF4E (Homo sapiens (Human)); assay: Fluorescence polarization competition assay for eIF4E binding potency; conditions: fluorescence polarization competition, 75 nM recombinant eIF4E, 20 nM EDA-m7GDP-ATTO-550; IC50 class; read-out: elF4E FP
Provide the recorded IC50 for the entries that follow.

The compound "Cc1c(CCOc2ccc(Cl)cc2-c2ccnc3c(C(=O)O)csc23)c(=O)c2c(C#N)c(Cl)c(C(F)(F)F)cc2n1C" showed IC50 equal to 50 to 1000 nM

The reported value for "Cc1cc(-c2cc(Cl)ccc2OCCn2c(C)nc3cc(Cl)c(NC(C)(C)C)c(C#N)c3c2=O)c2scc(C(=O)O)c2n1" in terms of IC50 is < 50 nM

Per the record, "Cc1nc2ccc(C(N)=O)c(C#N)c2c(=O)n1CCOc1ccc(Cl)cc1-c1ccnc2c(C(=O)O)csc12" has IC50 of < 50 nM

Input "N#Cc1cncc2nc(CCC(=O)O)n(CCOc3ccc(Cl)cc3-c3ccccc3)c(=O)c12" . Output IC50: 50 to 1000 nM

IC50 reading for "Cc1cc(-c2cc(Cl)ccc2OCCn2c(C)nc3cc(C(F)(F)F)c(-c4ncccc4F)c(C#N)c3c2=O)c2scc(C(=O)O)c2n1" : 50 to 1000 nM

The value of IC50 measured for the compound "Cc1nc2cc(F)c(F)c(C#N)c2c(=O)n1CCOc1cc(F)c(Cl)cc1-c1ccnc2c(C(=O)O)csc12" turned out to be 50 to 1000 nM

Looking up "N#Cc1cc2c(=O)n(CCOc3ccc(Cl)cc3-c3cc(CCO)cc(C(=O)O)c3)cnc2cn1" , I found its IC50 recorded as > 1000 nM

Just so you know, measured IC50 for "Cc1c(C(F)(F)F)cc2nc(C)n(CC#Cc3ccc(Cl)cc3-c3cn(C)c(=O)c4c(C(=O)O)csc34)c(=O)c2c1C#N" came out at < 50 nM

IC50 measured on "Cc1nc2cncc(C#N)c2c(=O)n1C/C=C/c1ccc(Cl)cc1-c1cccc(C(=O)O)c1" = 50 to 1000 nM

Value of IC50 reported for the compound "Cc1nc2cc(C(F)(F)F)cc(C#N)c2c(=O)n1CCOc1ccc(Cl)cc1-c1ccnc2c(C(=O)NS(C)(=O)=O)csc12" is < 50 nM

IC50 reading for "Cc1cc(-c2cc(Cl)ccc2C#CCn2c(C)nc3cc(C(F)(F)F)c(N4CCN(CCO)CC4)c(C#N)c3c2=O)c2scc(C(=O)O)c2n1" : < 50 nM

Per the records, this compound ( "Cc1cc(-c2c(C(F)(F)F)cc3nc(C)n(CCOc4ccc(Cl)cc4-c4cc(C)nc5c(C(=O)O)csc45)c(=O)c3c2C#N)cc(C)n1" ) has IC50 equal to < 50 nM

Lab book: IC50 of "Cc1c(C(F)(F)F)cc2nc(C)n(CCOc3ccc(Cl)cc3-c3ccnc4c(C(=O)O)csc34)c(=O)c2c1C#N" noted as < 50 nM

Record Cc1cc(-c2nc3c(=O)n(CCOc4ccc(Cl)cc4-c4ccc(C#N)c5c(C(=O)O)csc45)c(C)nc3cc2C(F)(F)F)ccn1 [788Fa] , field IC50: > 1000 nM

Briefly, IC50 measured for "N#Cc1cc2c(=O)n(CCOc3ccc(Cl)cc3-c3ccnc4c(C(=O)O)csc34)cnc2cn1" : 50 to 1000 nM

The reported IC50 of the compound "Cc1cc(-c2cc(Cl)ccc2OCCn2c(C)nc3cc(CN(C)C(C)(C)C)c(OC(F)F)c(C#N)c3c2=O)c2scc(C(=O)O)c2n1" was < 50 nM

Lab note: "Cc1nc2c(C3CCC(F)(F)CC3)ncc(C#N)c2c(=O)n1CCOc1ccc(Cl)cc1-c1ccnc2c(C(=O)O)csc12" gave IC50 of < 50 nM

// recorded IC50 for "Cc1cc(-c2cc(Cl)ccc2OCCn2c(C)nc3cnc(N4CC(OC(C)(C)C)C4)c(C#N)c3c2=O)c2scc(C(=O)O)c2n1" : < 50 nM

Value of IC50 reported for the compound "O=C(O)c1cccc(-c2cc(Cl)ccc2OCCn2cnc3nccnc3c2=O)c1" is 50 to 1000 nM

// field: IC50; key: "Cc1nc2cc(C(F)(F)F)cc(C#N)c2c(=O)n1CCOc1ccc(Cl)cc1-c1cccc2c(C(=O)O)c[nH]c12" ; value = 50 to 1000 nM
